IC50 by entry:
Molecular target: M2 (Homo sapiens)
Assay: In vitro functional assay of muscarinic acetylcholine receptor activity, M2
Type: cell-based
Details: antagonist activity; M2 method not separately described
Experimental: [The procedure below names another target; the source lists this target under the same test.] CHO-K1 cells stably expressing human M1 receptor with Aequorin (Perkin Elmer) were grown in F12 media, 10% FBS with 0.4 mg/mL geneticin and […]. Cells were grown to confluence and frozen down to be assayed at a later date. […] Calcium flux was measured using the FlexStation 3 (Molecular Devices). […] Antagonist activity was analyzed as a concentration dependent decrease in the EC80 acetylcholine response. […] The IC50 of the compounds was calculated from the dose response curve.

1) O=C1[C@@H](CCCc2cccc3ncnn23)C[C@H]2CN(c3ccnc(C(F)(F)F)c3)CCN12 [Example 33] | 1000 to 10000 nM
2) O=C1[C@@H](CCCc2cccc3ncsc23)C[C@H]2CN(c3ccncc3F)CCN12 [Example 2] | 1000 to 10000 nM
3) O=C1[C@@H](CCCc2cccc3ncnn23)C[C@H]2CN(c3cccc(C(F)(F)F)n3)CCN12 [Example 31] | > 10000 nM

[Q] # lookup: IC50 of N#Cc1ccc(N2CCN3C(=O)[C@@H](CCCc4cccc5cncn45)C[C@H]3C2)nc1 [Example 14]
[A] 1000 to 10000 nM

[Q] # lookup: IC50 of O=C1[C@@H](CCCc2cccc3nccnc23)C[C@H]2CN(c3ccc(F)cn3)CCN12 [Example 93]
[A] > 10000 nM

[Q] # lookup: IC50 of COc1ccc(N2CCN3C(=O)C(CCCc4cccn5ncnc45)C[C@H]3C2)nc1 (mixture of isomers) [Example 72]
[A] 1000 to 10000 nM

[Q] # lookup: IC50 of O=C1[C@@H](CCCc2cccc3ncnn23)C[C@H]2CN(c3ncc(F)cn3)CCN12 [Example 35]
[A] > 10000 nM

[Q] # lookup: IC50 of Cn1ncc2cccc(CCC[C@H]3C[C@H]4CN(c5ccc(C#N)cn5)CCN4C3=O)c21 [Example 55]
[A] 1000 to 10000 nM

[Q] # lookup: IC50 of O=C1[C@@H](CCCc2cccc3ncsc23)C[C@@H]2CN(c3ccncc3F)CCN12 [Example 7]
[A] 1000 to 10000 nM

[Q] # lookup: IC50 of CS(=O)(=O)c1ccc(N2CCN3C(=O)[C@@H](CCCc4cccc5ncsc45)C[C@H]3C2)nc1 [Example 13]
[A] 100 to 1000 nM

[Q] # lookup: IC50 of O=C1[C@@H](CCCc2cccn3ncnc23)C[C@H]2CN(c3ncc(F)cn3)CCN12 [Example 63]
[A] > 10000 nM

====

target: UniProt:P20309; assay: In vitro functional assay of muscarinic acetylcholine receptor activity, M3; conditions: antagonist activity; M3 method not separately described
metric: IC50

1) O=C1C(CCCc2cccc3ncnn23)C[C@H]2CN(c3cncc(Cl)c3)CCN12 (mixture of isomers) [Example 44] | > 10 µM
2) O=C1C(CCCc2cccc3ncsc23)C[C@H]2CN(c3ccncc3F)CCN12 (mixture of isomers) [Example 9] | > 10 µM
3) O=C1C(CCCc2cccc3ncsc23)CC2CN(c3ccncc3F)CCN12 (racemic) [Example 6] | > 10 µM
4) N#Cc1ccc(N2CCN3C(=O)[C@@H](CCCc4cccc(F)c4C4CC4)C[C@H]3C2)nc1 [Example 25] | 0.1 to 1 µM
5) N#Cc1ccc(N2CCN3C(=O)[C@@H](CCCc4cccc5ncoc45)C[C@H]3C2)nc1 [Example 22] | 1 to 10 µM

[Q] Recorded IC50 for O=C1[C@@H](CCCc2cccn3ncnc23)C[C@H]2CN(c3ncc(Cl)cn3)CCN12 [Example 64] with UniProt:P20309, please?
[A] 1 to 10 µM

[Q] Recorded IC50 for O=C1[C@@H](CCCc2cccc3ncnn23)C[C@H]2CN(c3ccc(F)cc3)CCN12 [Example 47] with UniProt:P20309, please?
[A] > 10 µM

====

Molecular target: human M1 receptor (Homo sapiens)
Sequence (P11229 1-460): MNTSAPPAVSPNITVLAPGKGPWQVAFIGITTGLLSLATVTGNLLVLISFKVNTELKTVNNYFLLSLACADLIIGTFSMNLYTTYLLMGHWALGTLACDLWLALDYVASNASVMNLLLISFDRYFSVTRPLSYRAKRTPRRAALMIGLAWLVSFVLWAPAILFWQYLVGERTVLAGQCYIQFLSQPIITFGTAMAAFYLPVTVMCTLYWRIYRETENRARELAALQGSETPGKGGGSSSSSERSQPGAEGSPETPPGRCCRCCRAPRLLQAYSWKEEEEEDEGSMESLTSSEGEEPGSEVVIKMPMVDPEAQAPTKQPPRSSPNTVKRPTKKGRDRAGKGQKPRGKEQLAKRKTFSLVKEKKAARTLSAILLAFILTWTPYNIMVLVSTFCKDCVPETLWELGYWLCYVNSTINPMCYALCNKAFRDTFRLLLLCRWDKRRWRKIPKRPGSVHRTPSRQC
Assay: In vitro functional assay of muscarinic acetylcholine receptor activity (aequorin calcium flux, antagonist mode vs EC80 acetylcholine), M1
Conditions: CHO-K1 cells stably expressing human M1 receptor with Aequorin; decrease in EC80 acetylcholine response
metric: IC50

Some molecules with known IC50 results, for comparison:
1. Cc1ccc(N2CCN3C(=O)[C@@H](CCCc4cccc5ncnn45)C[C@H]3C2)nn1 | < 100 nM
2. N#Cc1ccc(N2CCN3C(=O)[C@@H](CCCc4cccc5c4CCC5)C[C@H]3C2)nc1 | 1000 to 10000 nM
3. Cn1cnc2cccc(CCC[C@H]3C[C@H]4CN(c5ccc(C#N)cn5)CCN4C3=O)c21 | < 100 nM
4. O=C1[C@@H](CCCc2cccc3nccn23)C[C@H]2CN(c3ccncc3F)CCN12 | 100 to 1000 nM
5. O=C1[C@@H](CCCc2cccc3ncnn23)C[C@H]2CN(c3cccc(C(F)(F)F)n3)CCN12 | 1000 to 10000 nM
6. Cc1nc2cccc(CCC[C@H]3C[C@H]4CN(c5ccc(C#N)cn5)CCN4C3=O)c2o1 | < 100 nM
7. O=C1[C@@H](CCCc2cccc3ncnn23)C[C@H]2CN(c3ccc(OC(F)F)cn3)CCN12 | 100 to 1000 nM

[Q] # lookup: IC50 of N#Cc1ccc(N2CCN3C(=O)[C@@H](CCCc4cccc5nccnc45)C[C@H]3C2)nc1
[A] < 100 nM

====

biological target: human M1 receptor (Homo sapiens); experiment: In vitro functional assay of muscarinic acetylcholine receptor activity (aequorin calcium flux, antagonist mode vs EC80 acetylcholine), M1; details: CHO-K1 cells stably expressing human M1 receptor with Aequorin; decrease in EC80 acetylcholine response
metric: IC50

Some compounds with known IC50 results, for comparison:
1. N#Cc1cc(N2CCN3C(=O)[C@@H](CCCc4cccc5ncsc45)C[C@H]3C2)ccn1 | < 100 nM
2. CS(=O)(=O)c1ccc(N2CCN3C(=O)[C@@H](CCCc4cccc5ncsc45)C[C@H]3C2)nc1 | < 100 nM
3. O=C1C(CCCc2cccc3ncnn23)C[C@H]2CN(c3ccc(C(F)F)cn3)CCN12 (mixture of isomers) | < 100 nM
4. O=C1C(CCCc2c(F)ccc3nccn23)C[C@H]2CN(c3ccc(F)cn3)CCN12 (stereo partly drawn) | < 100 nM
5. O=C1[C@@H](CCCc2cccc3ncnn23)C[C@H]2CN(c3ccnc(C(F)(F)F)c3)CCN12 | 100 to 1000 nM

# input for lookup
[Q] # lookup: IC50 of O=C1[C@@H](CCCc2cccc3ncnn23)C[C@H]2CN(c3ccc(C4CC4)cn3)CCN12
[A] < 100 nM

====

pIC50 by entry:
molecular target: M3 (Homo sapiens, UniProt P20309); assay: In vitro functional assay of muscarinic acetylcholine receptor activity, M3; details: antagonist activity; M3 method not separately described
Sequence (P20309 whole entry): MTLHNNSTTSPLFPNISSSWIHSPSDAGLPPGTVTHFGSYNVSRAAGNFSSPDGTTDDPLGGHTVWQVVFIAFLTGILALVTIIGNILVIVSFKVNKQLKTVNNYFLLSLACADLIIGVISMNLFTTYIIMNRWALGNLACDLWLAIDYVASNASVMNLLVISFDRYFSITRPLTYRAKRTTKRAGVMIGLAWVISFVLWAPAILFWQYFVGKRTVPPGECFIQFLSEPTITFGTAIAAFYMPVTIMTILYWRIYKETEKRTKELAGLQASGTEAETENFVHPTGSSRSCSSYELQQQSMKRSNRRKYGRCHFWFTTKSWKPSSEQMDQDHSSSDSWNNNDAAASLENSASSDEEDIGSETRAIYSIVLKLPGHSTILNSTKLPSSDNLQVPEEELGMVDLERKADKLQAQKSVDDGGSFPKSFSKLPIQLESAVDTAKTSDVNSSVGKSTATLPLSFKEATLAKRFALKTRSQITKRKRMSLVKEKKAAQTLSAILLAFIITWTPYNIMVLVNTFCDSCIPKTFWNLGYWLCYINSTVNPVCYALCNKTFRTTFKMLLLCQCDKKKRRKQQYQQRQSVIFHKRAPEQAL
pIC50: −log10 of the molar value.

1) COCc1ccc(N2CCN3C(=O)[C@@H](CCCc4cccc5ncnn45)C[C@H]3C2)nc1 | 5.00 to 6.00
2) N#Cc1ccc(N2CCN3C(=O)[C@@H](CCCc4cccc5nnnn45)C[C@H]3C2)nc1 | 5.00 to 6.00
3) Cc1cc(N2CCN3C(=O)C(CCCc4cccc5ncnn45)C[C@H]3C2)ncc1F (mixture of isomers) | < 5.00

# input for lookup
[Q] # lookup: pIC50 of O=C1[C@@H](CCCc2cccn3nccc23)C[C@H]2CN(c3ncc(F)cn3)CCN12
[A] 5.00 to 6.00

====

molecular target: M2 (Homo sapiens, UniProt P08172); test: In vitro functional assay of muscarinic acetylcholine receptor activity, M2; conditions: antagonist activity; M2 method not separately described
Sequence (P08172 whole entry): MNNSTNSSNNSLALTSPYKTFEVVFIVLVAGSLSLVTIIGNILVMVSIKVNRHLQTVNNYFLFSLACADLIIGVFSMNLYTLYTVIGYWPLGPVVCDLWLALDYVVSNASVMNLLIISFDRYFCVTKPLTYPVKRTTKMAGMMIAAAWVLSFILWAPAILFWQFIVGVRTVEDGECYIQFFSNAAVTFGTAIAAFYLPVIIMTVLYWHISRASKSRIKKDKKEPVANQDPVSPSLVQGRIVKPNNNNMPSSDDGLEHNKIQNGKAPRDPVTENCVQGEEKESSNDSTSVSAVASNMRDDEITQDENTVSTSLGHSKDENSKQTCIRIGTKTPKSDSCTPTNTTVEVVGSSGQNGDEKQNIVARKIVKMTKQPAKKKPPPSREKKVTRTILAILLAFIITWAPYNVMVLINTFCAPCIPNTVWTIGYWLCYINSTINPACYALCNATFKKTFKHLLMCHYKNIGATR
metric: IC50

1. O=C1[C@@H](CCCc2cccc3ncnn23)C[C@H]2CN(c3ccc(CO)cn3)CCN12 | 1 to 10 µM

[Q] # lookup: IC50 of N#Cc1ccc(N2CCN3C(=O)[C@@H](CCCc4cccc5ncccc45)C[C@H]3C2)nc1
[A] 0.1 to 1 µM

[Q] # lookup: IC50 of N#Cc1ccc(N2CCN3C(=O)[C@@H](CCCc4ccc5c(c4)CCO5)C[C@H]3C2)nc1
[A] 1 to 10 µM

[Q] # lookup: IC50 of N#Cc1ccc(N2CCN3C(=O)[C@@H](CCCc4cccn5ccnc45)C[C@H]3C2)nc1
[A] > 10 µM

[Q] # lookup: IC50 of Cc1nccnc1CCC[C@H]1C[C@H]2CN(c3ccc(C#N)cn3)CCN2C1=O
[A] 1 to 10 µM

[Q] # lookup: IC50 of O=C1[C@@H](CCCc2cccc3ncsc23)C[C@H]2CN(c3ccnc(Cl)c3)CCN12
[A] 1 to 10 µM

[Q] # lookup: IC50 of O=C1[C@@H](CCCc2c(F)ccn3ncnc23)C[C@H]2CN(c3ccc(F)cn3)CCN12
[A] 1 to 10 µM

[Q] # lookup: IC50 of O=C1[C@@H](CCCc2cccc3ncnn23)C[C@H]2CN(c3ccc(F)cc3)CCN12
[A] > 10 µM
